target: EGFR^L858R/T790M/C797S (Homo sapiens, UniProt P00533, C797S/L858R/T790M); assay: EGFR inhibitory activity assay (TK-substrate-biotin/ATP, 665/615 ratio); type: biochemical; details: kinase inhibition
IC50 reference

COc1cc(N2CCC(N3CCN(CC(=O)N4CCC[C@H]4COc4cccc5c4C(=O)N(C4CCC(=O)NC4=O)C5=O)CC3)CC2)ccc1Nc1ncc(Cl)c(Nc2ccccc2P(C)(C)=O)n1 (some centres unmarked) [Compound C109]: 1 to 100 nM
COc1cc(N2CCC(N3CCN(C(=O)CN4CCN(C(=O)COc5cccc6c5C(=O)N(C5CCC(=O)NC5=O)C6=O)CC4)CC3)CC2)ccc1Nc1ncc(Cl)c(Nc2ccccc2P(C)(C)=O)n1 (centres unmarked) [Compound C99]: 1 to 100 nM
COc1cc(N2CCC(N3CCN(CC(=O)N4CC(F)(F)C[C@H]4C(=O)Nc4cccc5c4CN(C4CCC(=O)NC4=O)C5=O)CC3)CC2)ccc1Nc1ncc(Cl)c(Nc2ccccc2P(C)(C)=O)n1 (some centres unmarked) [Compound C110]: 1 to 100 nM
COc1cc(N2CCC(N3CCN(C(=O)CC4(CSCC(=O)Nc5cccc6c5C(=O)N(C5CCC(=O)NC5=O)C6=O)CC4)CC3)CC2)ccc1Nc1ncc(Cl)c(Nc2ccccc2P(C)(C)=O)n1 (centres unmarked) [Compound C103]: 201 to 300 nM

Next, consider the following molecule.
Inquiry: Using the record for COc1cc(N2CCC(N3CCN(C(=O)COc4cccc5c4C(=O)N(C4CCC(=O)NC4=O)C5=O)CC3)CC2)ccc1Nc1ncc(Cl)c(Nc2ccccc2P(C)(C)=O)n1 (centres unmarked) [Compound C101] , state its measured IC50.
Reply text: 1 to 100 nM

----------
biological target: Ba/F3(EGFR^L858R/T790M/C797S) cells (Homo sapiens, UniProt P00533, T790M/C797S/L858R, cells depend on it); test: Assay of activity on Ba/F3 cells (CTG, 72 h); format: cell-based; conditions: read-out: IC50 (nM) Ba/F3 (EGFR^L858R/T790M/C797S)
Sequence (P00533 whole entry T790M/C797S/L858R): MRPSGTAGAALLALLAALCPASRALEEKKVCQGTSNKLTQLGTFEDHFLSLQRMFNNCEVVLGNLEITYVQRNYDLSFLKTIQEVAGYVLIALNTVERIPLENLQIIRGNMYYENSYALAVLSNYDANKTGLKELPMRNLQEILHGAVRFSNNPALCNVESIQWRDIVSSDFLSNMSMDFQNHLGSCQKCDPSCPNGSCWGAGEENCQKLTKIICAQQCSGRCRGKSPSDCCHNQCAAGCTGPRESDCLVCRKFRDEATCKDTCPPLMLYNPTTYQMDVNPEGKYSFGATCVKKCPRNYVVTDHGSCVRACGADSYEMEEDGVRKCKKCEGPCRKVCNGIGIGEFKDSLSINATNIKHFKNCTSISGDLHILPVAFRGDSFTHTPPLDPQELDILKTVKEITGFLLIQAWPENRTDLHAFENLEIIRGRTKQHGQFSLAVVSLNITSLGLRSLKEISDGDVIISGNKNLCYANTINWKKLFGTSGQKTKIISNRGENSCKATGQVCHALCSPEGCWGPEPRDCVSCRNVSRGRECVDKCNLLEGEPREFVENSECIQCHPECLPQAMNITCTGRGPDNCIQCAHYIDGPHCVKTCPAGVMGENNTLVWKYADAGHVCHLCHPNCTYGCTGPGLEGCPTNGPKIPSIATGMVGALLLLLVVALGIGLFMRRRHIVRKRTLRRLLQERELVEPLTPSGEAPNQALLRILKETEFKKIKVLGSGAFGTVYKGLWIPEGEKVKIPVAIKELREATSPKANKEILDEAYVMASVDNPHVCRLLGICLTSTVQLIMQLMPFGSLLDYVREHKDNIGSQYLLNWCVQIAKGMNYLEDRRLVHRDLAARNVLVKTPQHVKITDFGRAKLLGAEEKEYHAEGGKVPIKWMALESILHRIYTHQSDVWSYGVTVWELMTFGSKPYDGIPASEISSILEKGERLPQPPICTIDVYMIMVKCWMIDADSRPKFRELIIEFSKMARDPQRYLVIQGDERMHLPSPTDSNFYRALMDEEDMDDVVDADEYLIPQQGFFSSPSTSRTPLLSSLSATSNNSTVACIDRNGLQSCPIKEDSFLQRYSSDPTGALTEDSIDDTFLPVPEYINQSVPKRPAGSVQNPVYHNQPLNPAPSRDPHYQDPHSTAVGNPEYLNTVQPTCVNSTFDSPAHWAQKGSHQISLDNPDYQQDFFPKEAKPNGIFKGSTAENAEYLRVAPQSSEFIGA
recordedEndpoint: GI50

COc1cc(N2CCC(N3CCN(CCCCCC#Cc4cccc5c4C(=O)N(C4CCC(=O)NC4=O)C5=O)CC3)CC2)ccc1Nc1ncc(Cl)c(Nc2ccccc2P(C)(C)=O)n1 (centres unmarked): > 300 nM

Inquiry: Using the record for COc1cc(N2CCC3(CCN(CCCCCCc4cccc5c4CN(C4CCC(=O)NC4=O)C5=O)CC3)CC2)c(C)cc1Nc1ncc(Br)c(Nc2ccc3nccnc3c2P(C)(C)=O)n1 (centres unmarked) , state its measured GI50.
Reply text: 1 to 100 nM

Inquiry: Using the record for C=Cc1cnc(Nc2ccc(N3CCC(N4CCN(CCCCCCCCCOc5cccc6c5C(=O)N(C5CCC(=O)NC5=O)C6=O)CC4)CC3)cc2OC)nc1Nc1ccccc1P(C)(C)=O (centres unmarked) , state its measured GI50.
Reply text: 201 to 300 nM

Inquiry: Using the record for COc1cc(N2CCC(N3CCN(C(=O)COc4cccc5c4C(=O)N(C4CCC(=O)NC4=O)C5=O)CC3)CC2)ccc1Nc1ncc(Cl)c(Nc2ccccc2P(C)(C)=O)n1 (centres unmarked) , state its measured GI50.
Reply text: > 300 nM

Inquiry: Using the record for COc1cc(N2CCC(N3CCN(C(=O)CCCCCCc4cccc5c4C(=O)N(C4CCC(=O)NC4=O)C5=O)CC3)CC2)ccc1Nc1ncc(Cl)c(Nc2ccccc2P(C)(C)=O)n1 (centres unmarked) , state its measured GI50.
Reply text: 201 to 300 nM
